Tested on: IL-2 secretion from Jurkat T cells
Test: IL-2 secretion from activated Jurkat T cells (ELISA)
Type: cell-based, human
Conditions: 3 uM, experiment (3)
recorded.endpoint: IL-2 [ ]pg/ml (3)
Please provide the amount together with its unit, number first.

O[C@@H]1c2ccccc2C[C@]1(Cc1ccccc1)C1=Cc2ccccc2C1 (mixture of isomers)    97.38 pg/mL
O[C@H]1c2ccccc2C[C@]1(Cc1ccccc1)C1=Cc2ccccc2C1 (mixture of isomers)    104.44 pg/mL

Provide IL-2 [ ]pg/ml (3) for all items below, preserving their order.
1. O[C@@H]1c2ccccc2C[C@@]1(Cc1ccccc1)C1=Cc2ccccc2C1 (single isomer, unassigned)
2. O[C@H]1c2ccccc2C[C@]1(Cc1ccccc1)C1=Cc2ccccc2C1 (single isomer, unassigned)

Key:
1. 100.50 pg/mL
2. 53.47 pg/mL
